Measured Target: T1, muCD98hc ECD Avi-His (mouse, UniProt P10852 100-526)
T1 construct: biotinylated on the Avi tag where captured on streptavidin; also called Mouse CD98-AVI-His; Mouse CD98hc-AVI-His
T1 sequence: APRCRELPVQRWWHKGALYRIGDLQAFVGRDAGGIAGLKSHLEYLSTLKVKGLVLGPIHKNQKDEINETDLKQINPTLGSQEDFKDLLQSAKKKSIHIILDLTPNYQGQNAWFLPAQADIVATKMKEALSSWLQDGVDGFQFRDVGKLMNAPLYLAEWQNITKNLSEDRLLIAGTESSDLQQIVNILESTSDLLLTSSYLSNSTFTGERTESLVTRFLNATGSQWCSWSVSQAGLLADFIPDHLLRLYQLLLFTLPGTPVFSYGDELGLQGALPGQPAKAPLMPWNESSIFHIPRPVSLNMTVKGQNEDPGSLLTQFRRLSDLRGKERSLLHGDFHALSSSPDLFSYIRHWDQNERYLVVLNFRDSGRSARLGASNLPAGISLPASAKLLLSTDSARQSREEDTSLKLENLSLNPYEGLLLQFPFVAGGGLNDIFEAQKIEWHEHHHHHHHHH
Measurement Description: ELISA, hybridoma supernatant
Test Readout: OD450
In your answer, state the number alone without any accompanying words.

Examples from the recorded data:
**Query** Can you look up the measured OD450 of CD98HC.03.002 (antibody, V domains shown, hybridoma IgG) VH: DVQLVESGGGLVQPGGSRKLSCAASGFTFSTFGMHWVRQAPEKGLEWVAYISGGSTNIYYADTVKGRFTISRDNPKNTLFLQMTSLRSEDTAMYYCARETTLLATNFDYWGQGTTLTVSS VL: DIQMTQTTSSLSASLGDRVTISCRASQDISNYLNWYQQKPDGTVKLLIYYTSRLHSGVPSRFSGSGSGTDYSLTISNLEQEDIATYFCQQGSTLPRTFGGGTKLEIK for me?
**Result** 0.0802

**Query** Can you look up the measured OD450 of CD98HC.04.062 (antibody, V domains shown, hybridoma IgG) VH: EVQLVESGGDLVKPGGSLKLSCTASRFAFSTYDMSWVRQTPEKRLEWVAYISSGGGSTYFPDTVKGRFTISRDNAKNTLYLQMSSLKSEDTAMYYCARQDGHYPWFPYWGQGTLVTVSA VL: DIVMSQSPSSLAVSVGEKVTMSCKSSQSLLYSGNQKTYLAWYQQKPGQSPKPLIYWASTRESGIPDRFTGSGSGTDFTLTISSVKAEDLAVYYCQQYYSYPPTFGAGTKLELK for me?
**Result** 0.0607

**Query** Can you look up the measured OD450 of CD98HC.04.046 (antibody, V domains shown, hybridoma IgG) VH: QIQLVQSGPVLKKPGETVKISCKASGYTFTNFGMNWVKQAPGKGLKWMGWIDTYTREPTYVDDFKGRFAFSLETSVTTAYLQINDLKNEDSATYFCARGESHWYFDVWGAGTTVTVSS VL: QIVLTQSPAIMSASLGERVTMTCIVSSSVSSSYLYWYQQKPGSSPKLWIYSTSILASGVPGRFSGSGSGTSYSLTISSMEAEDAATYYCHQYHRSPPTFGGGTKLEIK for me?
**Result** 0.0817

Continuing:
**Query** Can you look up the measured OD450 of CD98HC.04.003 (antibody, V domains shown, hybridoma IgG) VH: QVQLQQSGAELAKPGASLKMSCKASGYTFTDYYIHWVKQRPGQDLEWIGYINPNSAYTDSNQKFKDKATLTADKSSNTAYMQLSSLTSEDSAVYYCARKGHFYAPSFAYWGQGTLVTVSA VL: DIQMTQTTSSLSASLGDRVTISCRASQDISNYLNWYQQKPDGTVKLLIYYTSRLHSGVPSRFSGSGSGADYSLTISNLQQEDIATYFCQQGDTLPYTFGGGTKLEIE for me?
**Result** 0.0565

**Query** Can you look up the measured OD450 of CD98HC.04.065 (antibody, V domains shown, hybridoma IgG) VH: EVQLQESGPSLVKPSQTLSLTCSVTGDSITSGYWNWIRKFPGNKLEYMGYISYSGRTYYNPSLKSRVSITRDTSKNQYYLQLNSVTTEDTATYYCQRHVIYDYTWFAYWGQGTLVTVSA VL: QIVLTQSPAIMSASPGEKVTISCSASSSVHYMYWFQQKPGSSPKPWIYRTSILASGVPDRFSGSGSGTSYSLTISSMEAEDAATYYCQQYQSYPLTFGAGTKLELK for me?
**Result** 0.0984
